experiment: qHTS assay for cell viability of HEK293 cells (AID 743288); conditions: ATP luminescence (CellTiter-Glo), 18 h; hits give low values; further: on the % scale 0 is the no-effect control and ±100 the full control effect; nearly all actives have a fitted effect of over 50% in size
Results filed as inconclusive are left out.
Each record here notes measured max response.
Provide the reading as a plain figure in %.

compound	unit	max response
C[Si](C)(Cl)[Si](C)(C)Cl	%	-5.72
COc1nc(C)nc(NC(=O)NS(=O)(=O)c2ccccc2OCCCl)n1	%	6.67
O=C(OCCOCCOC(=O)c1ccccc1)c1ccccc1	%	-9.08
COC(=O)c1ccccc1C(=O)O	%	-13.6
CCCCC(CC)COC(=O)CS (stereo unspecified)	%	-2.56
COC(=O)c1c(Cl)nn(C)c1S(=O)(=O)NC(=O)Nc1nc(OC)cc(OC)n1	%	-3.18
CCCCCCCCCCCO	%	4.45
CC1=CC(=O)CC(C)(C)C1	%	-2.87
NC(=O)Cc1cccc2ccccc12	%	-7.9
COC(=O)C(C)Oc1ccc(Oc2ncc(C(F)(F)F)cc2Cl)cc1 (stereo unspecified)	%	-21.9

Turning now to a further record.
Sample O=C(Cl)c1ccc(C(=O)Cl)cc1 ; max response observed: -8.26
